Method: in vitro
Condition: dog
Readout type: CC50 (µg/mL)

[
  {
    "Smiles repr": "CCOC(=O)C1=C[C@@H](OC(CC)CC)[C@H](NC(C)=O)[C@@H](N)C1",
    "Readout type": "CC50",
    "Uom": "µg/mL",
    "Quantitative readout": 1110
  }
]
